Please provide measured glycan array binding signal (z-score) for the entries that follow.
# system: GlcNAc(a1-4)Gal(b1-4)GlcNAc(b1-3)Gal(b1-4)[Fuc(a1-3)]GlcNAc(b1-3)Gal(b1-4)[Fuc(a1-3)]GlcNAc
# method.notes: glycan array binding signal (z-score within array); higher = stronger binding
# setup.conditions: glycan notation: IUPAC condensed, linker removed
The sample as a whole holds a higher share of the strongest signals than the screen did.
Returns: the value as a bare number; no unit string appended.

Q) Which glycan array binding signal (z-score) is reported for this binder? GST Gap3 (Streptococcus parasanguinis) (protein) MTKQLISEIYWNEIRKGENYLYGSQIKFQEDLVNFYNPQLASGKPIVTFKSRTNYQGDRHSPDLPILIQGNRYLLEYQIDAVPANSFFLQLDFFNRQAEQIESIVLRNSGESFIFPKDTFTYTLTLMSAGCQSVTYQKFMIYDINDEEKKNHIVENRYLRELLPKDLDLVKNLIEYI
A) 2.24

Q) What about this binder? Aap arpt (Staphylococcus epidermidis) (protein) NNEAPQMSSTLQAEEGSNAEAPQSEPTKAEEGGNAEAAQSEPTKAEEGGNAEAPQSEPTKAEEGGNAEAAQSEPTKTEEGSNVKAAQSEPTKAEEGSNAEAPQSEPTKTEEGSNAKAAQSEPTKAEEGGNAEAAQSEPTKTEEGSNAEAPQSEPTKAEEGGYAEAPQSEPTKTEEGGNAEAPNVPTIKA
A) 2.41

Q) What about this binder? Tp0751, 83732 (protein) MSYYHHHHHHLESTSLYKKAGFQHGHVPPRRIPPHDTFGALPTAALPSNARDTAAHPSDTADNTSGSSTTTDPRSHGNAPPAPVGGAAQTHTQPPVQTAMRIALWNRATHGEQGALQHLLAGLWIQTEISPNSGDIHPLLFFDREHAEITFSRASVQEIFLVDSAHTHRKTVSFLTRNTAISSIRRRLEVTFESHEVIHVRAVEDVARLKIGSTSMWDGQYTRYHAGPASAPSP
A) 1.63
